Parameter pKa: see the listing below.
Assay overview: pH titration of peptide amphiphiles
Assay type: physicochemical
Study conditions: aqueous solution of 150 mM NaCl and 2.2 mM CaCl2, glutamic acid residues, 10 μM PA
Peptide text beside a SMILES is read from it. * marks the point of attachment. Palmitoyl = CCCCCCCCCCCCCCCC(=O)*

- Molecule: "CCCCCCCCCCCCCCCC(=O)N[C@@H](Cc1ccc(O)cc1)C(=O)N[C@@H](C)C(=O)N[C@@H](C)C(=O)N[C@@H](C)C(=O)N[C@@H](CCC(=O)O)C(=O)N[C@@H](CCC(=O)O)C(=O)N[C@@H](CCC(=O)O)C(=O)N[C@@H](CCC(=O)O)C(N)=O [PA 4] (Palmitoyl-YAAAEEEE-NH2)"
  pKa: 4.7
- Molecule: "CCCCCCCCCCCCCCCC(=O)N[C@H](C(=O)N[C@@H](C)C(=O)N[C@@H](C)C(=O)N[C@@H](C)C(=O)N[C@@H](CCC(=O)O)C(=O)N[C@@H](CCC(=O)O)C(=O)N[C@@H](CCC(=O)O)C(=O)N[C@@H](CCC(=O)O)C(N)=O)[C@@H](C)CC [PA 1] (Palmitoyl-IAAAEEEE-NH2)"
  pKa: 4.66
- Molecule: "CCCCCCCCCCCCCCCC(=O)N[C@H](C(=O)N[C@@H](C)C(=O)N[C@@H](C)C(=O)N[C@@H](C)C(=O)N[C@@H](CCC(=O)O)C(=O)N[C@@H](CCC(=O)O)C(=O)N[C@@H](CCC(=O)O)C(=O)N[C@@H](CCC(=O)O)C(N)=O)C(C)C [PA 3] (Palmitoyl-VAAAEEEE-NH2)"
  pKa: 4.86
- Molecule: "CCCCCCCCCCCCCCCC(=O)N[C@@H](Cc1ccccc1)C(=O)N[C@@H](C)C(=O)N[C@@H](C)C(=O)N[C@@H](C)C(=O)N[C@@H](CCC(=O)O)C(=O)N[C@@H](CCC(=O)O)C(=O)N[C@@H](CCC(=O)O)C(=O)N[C@@H](CCC(=O)O)C(N)=O [PA 2] (Palmitoyl-FAAAEEEE-NH2)"
  pKa: 4.94
